test system: NIH3T3; experiment: Cytotoxicity against mouse 3T3 cells assessed as cell viability after 3 hrs by spectrophotometric analysis; format: cell-based; conditions: nih3t3, 3 h
Quick rule for you: LD10 at 0.2 mM or higher means YES, lower means NO.

molecule=CCOP(=O)(OCC)C(C)(C)NCCCCCCCC[P+](c1ccccc1)(c1ccccc1)c1ccccc1.[Br-] target_of_assay=NIH3T3 class=NO
molecule="CCOP(=O)(OCC)C(NCCCC[P+](c1ccccc1)(c1ccccc1)c1ccccc1)C(C)C.[Br-] (racemic)" target_of_assay=NIH3T3 class=YES
molecule=CCOP(=O)(OCC)C(C)(C)NCCCC[P+](c1ccccc1)(c1ccccc1)c1ccccc1.[Br-] target_of_assay=NIH3T3 class=YES
molecule=CCCNC(C)(C)P(=O)(OCC)OCC target_of_assay=NIH3T3 class=YES
molecule="CCOP(=O)(OCC)C(NCCCCCCCC[P+](c1ccccc1)(c1ccccc1)c1ccccc1)C(C)C.[Br-] (racemic)" target_of_assay=NIH3T3 class=NO
molecule="CCOP(=O)(OCC)C1(C)CCCN1 (centres undefined)" target_of_assay=NIH3T3 class=YES

###

experiment: Dissociation constant, pKa of the compound in Krebs-Henseleit buffer; format: physicochemical
Assay Readout: pKa

compound=CCOP(=O)(OCC)C(C)(C)NCCCCCCCCCCCC[P+](c1ccccc1)(c1ccccc1)c1ccccc1.[Br-] value_measured=6.85
compound=CCOP(=O)(OCC)C(C)(C)NCCCCCCCC[P+](c1ccccc1)(c1ccccc1)c1ccccc1.[Br-] value_measured=6.94
compound="CCOP(=O)(OCC)C(C)(N)CCC[P+](c1ccccc1)(c1ccccc1)c1ccccc1 (racemic)" value_measured=5.13
compound="CCOP(=O)(OCC)C(NCCCCCC[P+](c1ccccc1)(c1ccccc1)c1ccccc1)C(C)C.[Br-] (racemic)" value_measured=5.99
compound=CCOP(=O)(OCC)C(C)(C)NCCCC[P+](c1ccccc1)(c1ccccc1)c1ccccc1.[Br-] value_measured=5.9

###

assay: Cytotoxicity against mouse 3T3 cells assessed as cell viability after 3 hrs by spectrophotometric analysis; type: cell-based, NIH3T3; conditions: 3T3 cells (NIH3T3), read-out: LD50
Assay Readout: CC50 at 3 h (µM)

molecule=CC(C)(C)/[N+]([O-])=C/c1ccc(OCCCC[P+](c2ccccc2)(c2ccccc2)c2ccccc2)cc1.[Br-] assay_readout="CC50 at 3 h" value_measured=200
molecule="CCOP(=O)(OCC)C(NCCCCCCCC[P+](c1ccccc1)(c1ccccc1)c1ccccc1)C(C)C.[Br-] (racemic)" assay_readout="CC50 at 3 h" value_measured=300
molecule=CCOP(=O)(OCC)C(C)(C)NCCCC[P+](c1ccccc1)(c1ccccc1)c1ccccc1.[Br-] assay_readout="CC50 at 3 h" value_measured=700
molecule=CCOP(=O)(OCC)C(C)(C)NCCCCCCCC[P+](c1ccccc1)(c1ccccc1)c1ccccc1.[Br-] assay_readout="CC50 at 3 h" value_measured=300
molecule="CCOP(=O)(OCC)C(C)(CCC[P+](c1ccccc1)(c1ccccc1)c1ccccc1)NCC(C)C.[Br-] (racemic)" assay_readout="CC50 at 3 h" value_measured=700
molecule="CCOP(=O)(OCC)C(NCCCCCC[P+](c1ccccc1)(c1ccccc1)c1ccccc1)C(C)C.[Br-] (racemic)" assay_readout="CC50 at 3 h" value_measured=500
molecule=CCOP(=O)(OCC)C(C)(C)NCCCCCCCCCCCC[P+](c1ccccc1)(c1ccccc1)c1ccccc1.[Br-] assay_readout="CC50 at 3 h" value_measured=100
molecule=CCOP(=O)(OCC)C(C)(C)NCCCCCC[P+](c1ccccc1)(c1ccccc1)c1ccccc1.[Br-] assay_readout="CC50 at 3 h" value_measured=600
molecule=CC(C)(C)/[N+]([O-])=C/c1ccccc1 assay_readout="CC50 at 3 h" value_measured=7200
molecule="CCOP(=O)(OCC)C(NCCCCCC[P+](c1ccccc1)(c1ccccc1)c1ccccc1)C(C)(C)C.[Br-] (racemic)" assay_readout="CC50 at 3 h" value_measured=300
molecule="CCOP(=O)(OCC)C(NCCCCCCCCCCCC[P+](c1ccccc1)(c1ccccc1)c1ccccc1)C(C)C.[Br-] (racemic)" assay_readout="CC50 at 3 h" value_measured=20
molecule="CCOP(=O)(OCC)C(NCCCC[P+](c1ccccc1)(c1ccccc1)c1ccccc1)C(C)C.[Br-] (racemic)" assay_readout="CC50 at 3 h" value_measured=600

###

experiment: Drug uptake in Sprague-Dawley rat liver mitochondria incubated for 1 hr followed by compound washout measured after 10 mins; type: ADME
In this section, each of the compounds is paired with its reported Drug uptake.
Assay Readout: Drug uptake (µmol/g)

smiles_str=CCCNC(C)(C)P(=O)(OCC)OCC assay_readout="Drug uptake" comparison_symbol=< value_measured=0.05
smiles_str=CCOP(=O)(OCC)C(C)(C)NCCCCCC[P+](c1ccccc1)(c1ccccc1)c1ccccc1.[Br-] assay_readout="Drug uptake" comparison_symbol== value_measured=1.55
smiles_str=CC(C)(C)/[N+]([O-])=C/c1ccccc1 assay_readout="Drug uptake" comparison_symbol=< value_measured=0.05
smiles_str=CCOP(=O)(OCC)C(C)(C)NCCCCCCCC[P+](c1ccccc1)(c1ccccc1)c1ccccc1.[Br-] assay_readout="Drug uptake" comparison_symbol== value_measured=1.32
smiles_str=CC(C)(C)/[N+]([O-])=C/c1ccc(OCCCC[P+](c2ccccc2)(c2ccccc2)c2ccccc2)cc1.[Br-] assay_readout="Drug uptake" comparison_symbol== value_measured=1.95

###

In this section, each of the compounds is paired with its reported Activity.
system: Liver; assay: Toxicity against Sprague-Dawley rat liver assessed as mitochondrial membrane potential incubated for 1 hr followed by compound washout measured after 10 mins; type: tissue-based
Assay Readout: Activity (mV)

smiles_str=CCCNC(C)(C)P(=O)(OCC)OCC value_measured=181.3
smiles_str=CCOP(=O)(OCC)C(C)(C)NCCCCCC[P+](c1ccccc1)(c1ccccc1)c1ccccc1.[Br-] value_measured=174.2
smiles_str=CC(C)(C)/[N+]([O-])=C/c1ccc(OCCCC[P+](c2ccccc2)(c2ccccc2)c2ccccc2)cc1.[Br-] value_measured=170.7
smiles_str=CC(C)(C)/[N+]([O-])=C/c1ccccc1 value_measured=178.9
smiles_str=CCOP(=O)(OCC)C(C)(C)NCCCCCCCC[P+](c1ccccc1)(c1ccccc1)c1ccccc1.[Br-] value_measured=171.9

###

system: NIH3T3; assay: Cytotoxicity against mouse 3T3 cells assessed as cell viability after 3 hrs by spectrophotometric analysis; format: cell-based; settings: nih3t3, 3 h
Assay Readout: LD10 (mM)

molecule="CCOP(=O)(OCC)C(NCCCCCCCCCCCC[P+](c1ccccc1)(c1ccccc1)c1ccccc1)C(C)C.[Br-] (racemic)" assay_readout=LD10 value_measured=0.01
molecule="CCOP(=O)(OCC)C(C)(CCC[P+](c1ccccc1)(c1ccccc1)c1ccccc1)NCC(C)C.[Br-] (racemic)" assay_readout=LD10 value_measured=0.5
molecule=CCOP(=O)(OCC)C(C)(C)NCCCCCCCCCCCC[P+](c1ccccc1)(c1ccccc1)c1ccccc1.[Br-] assay_readout=LD10 value_measured=0.05
molecule=CC(C)(C)/[N+]([O-])=C/c1ccccc1 assay_readout=LD10 value_measured=4.1
molecule=CC(C)(C)/[N+]([O-])=C/c1ccc(OCCCC[P+](c2ccccc2)(c2ccccc2)c2ccccc2)cc1.[Br-] assay_readout=LD10 value_measured=0.05

###

test: Toxicity against Chlamydomonas reinhardtii D66 assessed as loss of respiratory activity after 1 hr; conditions: Chlamydomonas reinhardtii D66 cells, read-out: LD50
In this section, each of the molecules is paired with its reported LC50 at 1 h.
Assay Readout: LC50 at 1 h (µM)

molecule="CCOP(=O)(OCC)C(NCCCCCCCC[P+](c1ccccc1)(c1ccccc1)c1ccccc1)C(C)C.[Br-] (racemic)" assay_readout="LC50 at 1 h" comparison_symbol== value_measured=25
molecule=CCOP(=O)(OCC)C(C)(C)NCCCC[P+](c1ccccc1)(c1ccccc1)c1ccccc1.[Br-] assay_readout="LC50 at 1 h" comparison_symbol== value_measured=400
molecule="CCOP(=O)(OCC)C(NCCCC[P+](c1ccccc1)(c1ccccc1)c1ccccc1)C(C)C.[Br-] (racemic)" assay_readout="LC50 at 1 h" comparison_symbol== value_measured=150
molecule=CC(C)(C)/[N+]([O-])=C/c1ccccc1 assay_readout="LC50 at 1 h" comparison_symbol=> value_measured=500

###

In this section, each of the compounds is paired with its reported LC50 at 1 h.
assay: Toxicity against Chlamydomonas reinhardtii D66 assessed as loss of photosynthetic activity after 1 hr; details: Chlamydomonas reinhardtii D66 cells, read-out: LD50
Assay Readout: LC50 at 1 h (µM)

smiles_str=CC(C)(C)/[N+]([O-])=C/c1ccccc1 comparison_symbol=> value_measured=500
smiles_str=CCOP(=O)(OCC)C(C)(C)NCCCC[P+](c1ccccc1)(c1ccccc1)c1ccccc1.[Br-] comparison_symbol== value_measured=500
smiles_str=CCOP(=O)(OCC)C(C)(C)NCCCCCC[P+](c1ccccc1)(c1ccccc1)c1ccccc1.[Br-] comparison_symbol== value_measured=250
smiles_str=CCOP(=O)(OCC)C(C)(C)NCCCCCCCC[P+](c1ccccc1)(c1ccccc1)c1ccccc1.[Br-] comparison_symbol== value_measured=100

Values were extracted from ChEMBL document CHEMBL2321775.
